conditions: in m-xylene, 321.64 K
Reported Property: solubility (mole fraction)

INSERT INTO assay_data (entry_smiles, reported_property, readout_number) VALUES
  ('CC1=CC(=O)c2ccccc2C1=O', 'solubility (mole fraction)', 0.23);

====

settings: in ethylbenzene, 331.75 K
Reported Property: solubility (mole fraction)

INSERT INTO results (entry_smiles, reported_property, result) VALUES
  ('CC1=CC(=O)c2ccccc2C1=O', 'solubility (mole fraction)', 0.26);

====

conditions: in ethylbenzene, 309.44 K
Reported Property: solubility (mole fraction)

INSERT INTO assay_data (entry_smiles, readout_number) VALUES
  ('CC1=CC(=O)c2ccccc2C1=O', 0.122);

====

details: in m-xylene, 337.61 K
Reported Property: solubility (mole fraction)

INSERT INTO assay_data (entry_smiles, reported_property, readout_number) VALUES
  ('CC1=CC(=O)c2ccccc2C1=O', 'solubility (mole fraction)', 0.364);

====

conditions: in benzene, 299.44 K
Reported Property: solubility (mole fraction)

INSERT INTO results (entry_smiles, readout_number) VALUES
  ('CC1=CC(=O)c2ccccc2C1=O', 0.109);

====

details: in toluene, 333.86 K
Reported Property: solubility (mole fraction)

INSERT INTO results (entry_smiles, reported_property, readout_number) VALUES
  ('CC1=CC(=O)c2ccccc2C1=O', 'solubility (mole fraction)', 0.311);

====

conditions: in toluene, 313.63 K
Reported Property: solubility (mole fraction)

INSERT INTO results (entry_smiles, readout_number) VALUES
  ('CC1=CC(=O)c2ccccc2C1=O', 0.166);

====

conditions: in o-xylene, 302.95 K
Reported Property: solubility (mole fraction)

INSERT INTO results (entry_smiles, readout_number) VALUES
  ('CC1=CC(=O)c2ccccc2C1=O', 0.14);

====

conditions: in ethylbenzene, 314.77 K
Reported Property: solubility (mole fraction)

INSERT INTO assay_data (entry_smiles, reported_property, result) VALUES
  ('CC1=CC(=O)c2ccccc2C1=O', 'solubility (mole fraction)', 0.146);

====

conditions: in o-xylene, 342.43 K
Reported Property: solubility (mole fraction)

INSERT INTO results (entry_smiles, reported_property, readout_number) VALUES
  ('CC1=CC(=O)c2ccccc2C1=O', 'solubility (mole fraction)', 0.432);

====

conditions: in p-xylene, 335.89 K
Reported Property: solubility (mole fraction)

INSERT INTO assay_data (entry_smiles, reported_property, result) VALUES
  ('CC1=CC(=O)c2ccccc2C1=O', 'solubility (mole fraction)', 0.344);

====

settings: in p-xylene, 323.35 K
Reported Property: solubility (mole fraction)

INSERT INTO measurements (entry_smiles, readout_number) VALUES
  ('CC1=CC(=O)c2ccccc2C1=O', 0.239);

====

conditions: in ethylbenzene, 302.85 K
Reported Property: solubility (mole fraction)

INSERT INTO assay_data (entry_smiles, readout_number) VALUES
  ('CC1=CC(=O)c2ccccc2C1=O', 0.0976);

====

details: in m-xylene, 325.94 K
Reported Property: solubility (mole fraction)

INSERT INTO measurements (entry_smiles, readout_number) VALUES
  ('CC1=CC(=O)c2ccccc2C1=O', 0.258);

====

settings: in m-xylene, 333.64 K
Reported Property: solubility (mole fraction)

INSERT INTO measurements (entry_smiles, reported_property, result) VALUES
  ('CC1=CC(=O)c2ccccc2C1=O', 'solubility (mole fraction)', 0.323);

====

conditions: in o-xylene, 314.25 K
Reported Property: solubility (mole fraction)

INSERT INTO results (entry_smiles, readout_number) VALUES
  ('CC1=CC(=O)c2ccccc2C1=O', 0.194);

====

conditions: in o-xylene, 326.77 K
Reported Property: solubility (mole fraction)

INSERT INTO assay_data (entry_smiles, reported_property, readout_number) VALUES
  ('CC1=CC(=O)c2ccccc2C1=O', 'solubility (mole fraction)', 0.274);

====

details: in toluene, 308.84 K
Reported Property: solubility (mole fraction)

INSERT INTO assay_data (entry_smiles, result) VALUES
  ('CC1=CC(=O)c2ccccc2C1=O', 0.143);

====

conditions: in o-xylene, 309.24 K
Reported Property: solubility (mole fraction)

INSERT INTO measurements (entry_smiles, reported_property, result) VALUES
  ('CC1=CC(=O)c2ccccc2C1=O', 'solubility (mole fraction)', 0.169);

====

conditions: in p-xylene, 314.64 K
Reported Property: solubility (mole fraction)

INSERT INTO measurements (entry_smiles, reported_property, readout_number) VALUES
  ('CC1=CC(=O)c2ccccc2C1=O', 'solubility (mole fraction)', 0.184);

====

settings: in p-xylene, 332.02 K
Reported Property: solubility (mole fraction)

INSERT INTO measurements (entry_smiles, readout_number) VALUES
  ('CC1=CC(=O)c2ccccc2C1=O', 0.304);

====

details: in ethylbenzene, 319.53 K
Reported Property: solubility (mole fraction)

INSERT INTO assay_data (entry_smiles, readout_number) VALUES
  ('CC1=CC(=O)c2ccccc2C1=O', 0.173);

====

conditions: in o-xylene, 318.34 K
Reported Property: solubility (mole fraction)

INSERT INTO assay_data (entry_smiles, readout_number) VALUES
  ('CC1=CC(=O)c2ccccc2C1=O', 0.219);

====

conditions: in benzene, 326.75 K
Reported Property: solubility (mole fraction)

INSERT INTO assay_data (entry_smiles, result) VALUES
  ('CC1=CC(=O)c2ccccc2C1=O', 0.262);

====

details: in p-xylene, 344.24 K
Reported Property: solubility (mole fraction)

INSERT INTO measurements (entry_smiles, readout_number) VALUES
  ('CC1=CC(=O)c2ccccc2C1=O', 0.44);

====

conditions: in m-xylene, 329.73 K
Reported Property: solubility (mole fraction)

INSERT INTO results (entry_smiles, readout_number) VALUES
  ('CC1=CC(=O)c2ccccc2C1=O', 0.288);

====

settings: in benzene, 313.92 K
Reported Property: solubility (mole fraction)

INSERT INTO results (entry_smiles, reported_property, readout_number) VALUES
  ('CC1=CC(=O)c2ccccc2C1=O', 'solubility (mole fraction)', 0.174);

====

conditions: in ethylbenzene, 339.42 K
Reported Property: solubility (mole fraction)

INSERT INTO measurements (entry_smiles, reported_property, result) VALUES
  ('CC1=CC(=O)c2ccccc2C1=O', 'solubility (mole fraction)', 0.342);

====

settings: in o-xylene, 322.45 K
Reported Property: solubility (mole fraction)

INSERT INTO assay_data (entry_smiles, readout_number) VALUES
  ('CC1=CC(=O)c2ccccc2C1=O', 0.245);

====

details: in m-xylene, 307.74 K
Reported Property: solubility (mole fraction)

INSERT INTO assay_data (entry_smiles, result) VALUES
  ('CC1=CC(=O)c2ccccc2C1=O', 0.151);

====

conditions: in p-xylene, 327.68 K
Reported Property: solubility (mole fraction)

INSERT INTO measurements (entry_smiles, readout_number) VALUES
  ('CC1=CC(=O)c2ccccc2C1=O', 0.269);

====

conditions: in m-xylene, 301.65 K
Reported Property: solubility (mole fraction)

INSERT INTO assay_data (entry_smiles, readout_number) VALUES
  ('CC1=CC(=O)c2ccccc2C1=O', 0.127);

====

details: in o-xylene, 330.54 K
Reported Property: solubility (mole fraction)

INSERT INTO assay_data (entry_smiles, result) VALUES
  ('CC1=CC(=O)c2ccccc2C1=O', 0.305);

====

conditions: in toluene, 330.04 K
Reported Property: solubility (mole fraction)

INSERT INTO assay_data (entry_smiles, readout_number) VALUES
  ('CC1=CC(=O)c2ccccc2C1=O', 0.277);

====

details: in toluene, 303.44 K
Reported Property: solubility (mole fraction)

INSERT INTO results (entry_smiles, readout_number) VALUES
  ('CC1=CC(=O)c2ccccc2C1=O', 0.119);

Recorded values, source BigSolDB 2.1.
